src = patent US11999727B2

Task for the reader: assign each of the following compounds its reported IC50.
Target: PRMT5 (Homo sapiens, UniProt O14744)
Construct: purchased Viva (custom protein)
Sequence (O14744 whole entry): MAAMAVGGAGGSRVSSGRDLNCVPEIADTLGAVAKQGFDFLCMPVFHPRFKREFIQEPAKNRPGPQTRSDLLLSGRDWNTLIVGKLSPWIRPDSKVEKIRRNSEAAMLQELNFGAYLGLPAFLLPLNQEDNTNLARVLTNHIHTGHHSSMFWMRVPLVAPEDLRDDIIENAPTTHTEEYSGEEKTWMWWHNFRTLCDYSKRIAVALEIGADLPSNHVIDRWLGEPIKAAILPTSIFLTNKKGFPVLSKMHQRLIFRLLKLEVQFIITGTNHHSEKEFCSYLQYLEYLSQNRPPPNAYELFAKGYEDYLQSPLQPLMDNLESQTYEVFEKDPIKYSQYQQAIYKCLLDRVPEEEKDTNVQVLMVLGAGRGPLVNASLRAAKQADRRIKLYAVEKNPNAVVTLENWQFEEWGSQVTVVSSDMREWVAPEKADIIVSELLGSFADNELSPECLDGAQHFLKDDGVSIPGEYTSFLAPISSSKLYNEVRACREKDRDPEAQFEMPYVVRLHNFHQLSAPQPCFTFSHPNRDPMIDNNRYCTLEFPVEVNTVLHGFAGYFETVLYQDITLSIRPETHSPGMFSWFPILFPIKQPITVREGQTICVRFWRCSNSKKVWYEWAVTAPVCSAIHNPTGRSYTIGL
Sequence (Q9BQA1 whole entry partner): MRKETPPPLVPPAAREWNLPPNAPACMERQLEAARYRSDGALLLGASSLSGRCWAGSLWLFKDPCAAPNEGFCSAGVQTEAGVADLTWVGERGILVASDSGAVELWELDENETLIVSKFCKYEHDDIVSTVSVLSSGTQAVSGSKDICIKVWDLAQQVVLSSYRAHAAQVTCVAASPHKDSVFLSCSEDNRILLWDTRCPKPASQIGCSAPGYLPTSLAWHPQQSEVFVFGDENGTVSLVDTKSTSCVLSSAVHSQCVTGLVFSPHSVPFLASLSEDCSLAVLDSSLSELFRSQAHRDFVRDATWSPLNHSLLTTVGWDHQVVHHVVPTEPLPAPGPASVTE
Test: PRMT5 biochemical IC50 assay with MTA as cofactor
Settings: PRMT5, MTA as cofactor; read-out: MTA IC50

Indicate its recorded IC50; the compound in question is CNc1nc2cc([C@H]3CC[C@H](C)CN3C(=O)C(=O)Nc3cnc(OC)c(C(N)=O)c3)ccc2s1 (single isomer, unassigned) < 50 nM

Indicate its recorded IC50; the compound in question is Cc1cc(NC(=O)C(=O)N2C[C@H](C)CC[C@H]2c2cscn2)cnc1N (single isomer, unassigned) > 500 nM

Indicate its recorded IC50; the compound in question is Cc1cc(NC(=O)C(=O)N2C[C@H](C)CC[C@H]2c2cnc3[nH]ncc3c2)cnc1N (single isomer, unassigned) < 50 nM
